meta.source: ChEMBL document CHEMBL1201862

tested on: LXFL 529; experiment: NCI tumour cell line growth inhibition, 48 h
Activity calls are given as the source filed them. Cut-off read from the data, not from the text of the source: active = GI50 up to about 1.1 µM and inactive = higher.
Measured Metric: GI50

INSERT INTO measurements (molecule, measured_metric, endpoint_value) VALUES
  ('CC(C)CCC[C@@H](C)C1CCC2[C@@H]3CC=C4C[C@@H](C(=O)NCCN(C)C)CC[C@]4(C)C3CC[C@@]21C (some centres undefined)', 'GI50', '13.9 µM (inactive)'),
  ('CCOC(=O)C(=O)Nc1cccc(Cl)c1C', 'GI50', '> 100 µM (inactive)'),
  ('COc1cc(-c2ccc(NC(=O)SCCC(=O)O)cc2OC)ccc1NC(=O)SCCC(=O)O', 'GI50', '> 100 µM (inactive)'),
  ('COc1ccc(S(=O)(=O)N(CC(=O)O)c2ccccc2)cc1', 'GI50', '> 100 µM (inactive)'),
  ('CC1=Nc2c(ccc3c2C(=O)c2ccccc2C3=O)NC(c2cccc3c2CCC3)C1 (centres undefined)', 'GI50', '> 100 µM (inactive)'),
  ('O=C1C(NCCO)=C(N2CC2)C(=O)C(NCCO)=C1N1CC1', 'GI50', '> 51.6 µM (inactive)'),
  ('Cc1cc2c3c(coc3c1-c1c(C)cc3c4c(coc14)C(=O)C(O)=C3C(C)C)C(=O)C(O)=C2C(C)C', 'GI50', '3.77 µM (inactive)'),
  ('CCSC(SCC)=C1C(=O)N(c2ccccc2)N=C1C', 'GI50', '10 µM (inactive)'),
  ('CN(C)C(=S)/N=c1\ss/c(=N/c2ccccc2)n1C', 'GI50', '> 100 µM (inactive)'),
  ('CC(C)C(=O)/C=C/c1ccc(Cl)cc1', 'GI50', '14.9 µM (inactive)'),
  ('COc1cc2ccc3c4cc(OC)c(OC)cc4c[n+](C)c3c2cc1O', 'GI50', '12.6 µM (inactive)'),
  ('CCOP1(=O)C=CC(Cl)=C(C)C1 (centres undefined)', 'GI50', '12.4 µM (inactive)'),
  ('NC(=O)CCC(NCc1c2ccccc2[n+]([O-])c2ccccc12)C(=O)O (centres undefined)', 'GI50', '45.1 µM (inactive)'),
  ('O=c1cc(O)cc2n1CCC2', 'GI50', '> 100 µM (inactive)'),
  ('COc1ccc(CNc2cc(OC)cc(OC)c2)cc1', 'GI50', '49.3 µM (inactive)'),
  ('CSC1(C)CC2C(CC1N1CCOCC1)C2(C)C (centres undefined)', 'GI50', '> 100 µM (inactive)'),
  ('O=C(c1ccccc1)c1nc2ccc(Cl)cc2c2c1CCCO2', 'GI50', '> 100 µM (inactive)'),
  ('COc1ccc(-c2cc(-c3cc(C)ccc3O)nc(O)n2)cc1', 'GI50', '64 µM (inactive)'),
  ('C[Si](C)(C)OC1(C#N)C2C3CC4C2C(=O)C2C4C3C21 (centres undefined)', 'GI50', '> 100 µM (inactive)');
